- Tested on: Escherichia coli
- Protocol details: Synergistic antibacterial activity against Escherichia coli TG-1 transfected with Klebsiella pneumoniae full-length NDM-1 beta lactamase gene assessed as fractional inhibitory concentration index in presence of meropenem
- Format: functional
// fractional inhibitory concentration index (FICI) lookup, one value per entry

The cases that follow already have their fractional inhibitory concentration index (FICI) on record.
[[record]]
smiles_string = "CC(C)(C)OC(=O)NCCCCn1[se]c2ccccc2c1=O"
system_name = "Escherichia coli"
val = 1

[[record]]
smiles_string = "CSc1nnc(-n2[se]c3ccccc3c2=O)s1"
system_name = "Escherichia coli"
val = 0.25

[[record]]
smiles_string = "CN(C)S(=O)(=O)NCCn1[se]c2ccccc2c1=O"
system_name = "Escherichia coli"
val = 0.25

[[record]]
smiles_string = "CC(C)(C)OC(=O)NCCn1[se]c2ccccc2c1=O"
system_name = "Escherichia coli"
val = 0.5

[[record]]
smiles_string = "O=c1c2ccccc2[se]n1CCNS(=O)(=O)c1ccc(Cl)c([N+](=O)[O-])c1"
system_name = "Escherichia coli"
val = 0.5


Query compound follows.
Qu. Record request: fractional inhibitory concentration index (FICI) value, item CC(C)(C)OC(=O)NCCCn1[se]c2ccccc2c1=O
Ans. 0.5
